Data credit: PubChem BioAssay (NCI)

Test system: KM12 colon
Test description: NCI tumour cell line growth inhibition, 48 h
Endpoint: TGI

compound=N#CC(C#N)=C1C(C#N)=C(N)NC12OCCO2 endpoint=TGI observed_result="> 100 µM"
compound="CCCNCCCC(NC(C)=O)C(=O)NCc1ccccc1 (stereo unspecified)" endpoint=TGI observed_result="> 100 µM"
compound=Cn1nc2n(c1=O)CCCN2 endpoint=TGI observed_result="> 100 µM"
compound=COc1cc(/C=C2\CCC/C(=C\c3cc(OC)c(O)c(OC)c3)C2=O)cc(OC)c1O endpoint=TGI observed_result="8.33 µM"
compound=CCOC(=O)c1c(N2CCCC2)ncn(-c2ccccc2)c1=S endpoint=TGI observed_result="> 100 µM"
compound=CCN(CC)CCNc1ccc([N+](=O)[O-])c2sc3ccccc3c(=O)c12 endpoint=TGI observed_result="2.55 µM"
compound=CCOC(=O)C(=[N+]=[N-])C(=O)Nc1nn2nnnc2c2ccccc12 endpoint=TGI observed_result="> 100 µM"
compound=C/C(=C\c1ccccn1)c1ccccn1 endpoint=TGI observed_result="> 100 µM"
compound=Cc1ccc(C(=O)N/N=C(\N=Nc2cccc(Cl)c2)c2ccc(N(CCC#N)CCC#N)cc2C)cc1 endpoint=TGI observed_result="> 100 µM"
compound=Cc1cccc2c1[nH]c1[nH]c(=O)[nH]c(=O)c12 endpoint=TGI observed_result="> 100 µM"
compound=O=[N+]([O-])c1c(Br)cc(Br)c2c1Nc1c(ccc(Cl)c1Cl)S2 endpoint=TGI observed_result="20.5 µM"

====

System: DMS 114 small cell lung
Test description: NCI tumour cell line growth inhibition, 48 h
Measured TGI, listed per entry for reference.
Endpoint: TGI

molecule=Oc1cc(O)c(Oc2cccc(O)c2O)c(O)c1 assay_target="DMS 114 small cell lung" observed_result="> 100 µM"
molecule=CS(=O)(=O)OCCN1CCN(C(=O)c2cccc3c(Nc4ccc(S(=O)(=O)N=C(N)N)cc4)c4ccccc4nc23)CC1 assay_target="DMS 114 small cell lung" observed_result="> 100 µM"
molecule="CCCCC1CC(c2cccc([N+](=O)[O-])c2)=NO1 (stereo unspecified)" assay_target="DMS 114 small cell lung" observed_result="> 100 µM"
molecule="Nc1nc2c(c(=O)[nH]1)NC(CO)CN2 (stereo unspecified)" assay_target="DMS 114 small cell lung" observed_result="> 100 µM"
molecule="C=C(CCCCCCCCC)CC(=O)SCCNC(=O)CCNC(=O)C(O)C(C)(C)COP(=O)(O)OP(=O)(O)OCC1OC(n2cnc3c(N)ncnc32)C(O)C1OP(=O)(O)O (stereo unspecified)" assay_target="DMS 114 small cell lung" observed_result="> 100 µM"
molecule="CCO/C=C/C(C)C1(C(=O)OCC)CCCCC1=O (stereo unspecified)" assay_target="DMS 114 small cell lung" observed_result="> 100 µM"
molecule="O=C(Nc1ccc(Cl)cc1Cl)C(=O)C(C(=O)c1ccc2ccccc2c1)C1OC(=O)c2ccccc21 (stereo unspecified)" assay_target="DMS 114 small cell lung" observed_result="46.2 µM"
molecule=CCc1cccc(C(C)C)c1NC(=O)C(=O)CC(=O)c1c(C)n([O-])c2ccccc2[n+]1=O assay_target="DMS 114 small cell lung" observed_result="> 100 µM"
molecule=O=C(c1ccc(Cl)cc1)c1ccc(OCCCCCCCCCCOc2ccc(C(=O)c3ccc(Cl)cc3)cc2)cc1 assay_target="DMS 114 small cell lung" observed_result="> 100 µM"
molecule="CC12N=NN(c3ccc([N+](=O)[O-])cc3)C1(O)c1ccccc1C2=O (stereo unspecified)" assay_target="DMS 114 small cell lung" observed_result="> 100 µM"
molecule=O=c1[nH]c(=O)n([C@@H]2C[C@H](CO)[C@H](O)C2)cc1/C=C/Br assay_target="DMS 114 small cell lung" observed_result="> 100 µM"
molecule=COc1ccccc1N=C(N)N/N=C/c1c[nH]c2ccccc12 assay_target="DMS 114 small cell lung" observed_result="15.5 µM"
molecule="O=C(Nc1cccc([N+](=O)[O-])c1)C(=O)C(C(=O)c1ccccc1-c1ccccc1)C1OC(=O)c2ccccc21 (stereo unspecified)" assay_target="DMS 114 small cell lung" observed_result="33.1 µM"
molecule="CCCNCCCC(NC(C)=O)C(=O)NCc1ccccc1 (stereo unspecified)" assay_target="DMS 114 small cell lung" observed_result="> 100 µM"
molecule="CC(=O)N[C@@H]1C(O)CN2C(=O)C(=O)O[C@H](C(O)CO)[C@@H]12 (stereo partly specified)" assay_target="DMS 114 small cell lung" observed_result="> 100 µM"
molecule=CCCCc1c2c(nc3c1CCc1cc4cc5c(nc4nc1-3)-c1nc3c(c(CCCC)c1CC5)CCCC3)CCCC2 assay_target="DMS 114 small cell lung" observed_result="88 µM"
